Experiment: label from the status in PepcDB records
quantity: protein production

Endpoint output: protein production of KKPEGKPDQKFDQKQELGRVIHLSNLPHSGYSDSAVLKLAEPYGKIKNYILMRMKSQAFIEMETREDAMAMVDHCLKKALWFQGRCVKVDLSEKYKKLV . Value?
not failed

Same question, MNIVIVVFSTDEETLRKFKDIIKKNGFKVRTVRSPQELKDSIEELVKKYNATIVVVVVDDKEWAEKAIRFVKSLGAQVLIIIYDQDQNRLEEFSREVRRRGFEVRTVTSPDDFKKSLERLIREVGSLEHHHHHH this time
not failed

###

Assay: label from the status in PepcDB records
quantity: protein production

Sample answers from the record:
What value of protein production has been reported for the following sequence? MRNSMMTIYPHLIICPHCDSVHHYRALNPGEAARCTRCQATLYRSGWINTGHSLALIQTAAIVFFIANSYPVLTVSFHALQNTATLWQAALALANGATLPLAIGCFFILIMAPFLQIMLTGWVLMFANKDRCAPGFIPVMKILLWLRPWSMLEIATLGFLIAAIKLSGFMQVMPGAGCWALAALMLLLVVVNSIDLRPLWSLVPTDSNHSVVRHEK
failed

Next up: MDSSDSHVGQDVYVDQGLGEPDRLERLWAPYRMSYINTRSGGKQSTTAKRDPFIEVPKMSDEDGLIVARGELVYCVLNLYPYNAGHMMVIPFRKEKNLEDLSLAESAELMLFTQTAIKALKQVSNPDAVNVGLNLGKASGGSVGDHLHVHVVPRWSGDANFMTVIDGVKVLPQTLRQTRAMLAQAWGTIDGAPGTVDPTLTSAIRTAAPKEH
failed

Try MPWQQQPIRYSADLEKPSPREQADIEKIMAKLLKNNERAYDKYKHGLRDAHAKSHAILRGELIVNEGLPPELAQGLFAEPRTYPVIARLSSTSGVRRSDKTRGVRGLGLKVLGVQGEKILPDDSSTNQDFVMVTHEDFLFADAHAYAGLGMITASLLARLSDQALWLGSGLLDLVSKAGIKLPDNLMVFVAPNRPILGLEFFSSAPFRHGDHVAKYRFAPASENVKALSGQLLPRNPAPEQHRDMIAEFFADQTAEFDFSAQLCTDPVAMPIEDAGKNWDKSISPYVSVAKIVFGPQNPYSALRRAYGDDVLAFNSWRGLAEHRPLGSINRLKKTVYESSADYRHRVNRIDRHEPLEHHHHHH next.
failed

Same read-out for MAAFQIANKTVGKDAPVFIIAEAGINHDGKLDQAFALIDAAAEAGADAVKFQMFQADRMYQKDPGLYKTAAGKDVSIFSLVQSMEMPAEWILPLLDYCREKQVIFLSTVCDEGSADLLQSTSPSAFKIASYEINHLPLLKYVARLNRPMIFSTAGAEISDVHEAWRTIRAEGNNQIAIMHCVAKYPAPPEYSNLSVIPMLAAAFPEAVIGFSDHSEHPTEAPCAAVRLGAKLIEKHFTIDKNLPGADHSFALNPDELKEMVDGIRKTEAELKQGITKPVSEKLLGSSYKTTTAIEGEIRNFAYRGIFTTAPIQKGEAFSEDNIAVLRPGQKPQGLHPRFFELLTSGVRAVRDIPADTGIVWDDILLKDSPFHE ?
not failed

What do you get for MSLDRLAPAIFVFLWSTGWVTAKYAVYYTGPLTFLCLRYLLAGLLLWAICRFSGISWPKQRADVLRAILSGVFLHGIYLGMIWWAIGQGVPAAIGGIIAGLQPLMTAVAARFMIGERISPLQRAGLLLGFAGIAIAVLPKVMATGALGMSVPLYAVAVNVLGMVSVTYGTLYQKKYVHGGNIMAVATLQYVGALLVTVPFALLLEDGHVDWSLGLAATLGWSVGAISIGAVALLLYLIRRGQVSRAASLIYLVPPLAAVEAAVLFGETLTPAMIAGTVLAVTGVYLANRKPAASVAVR ?
failed

Now try VIGTWDCDTCLVQNKPEAIKCVACETPKPGTCVKRALTLT .
not failed

Quick one: MSLTQIVNPIIYPSRTIPRRFTAISPFKTLSPQFSRHPPHALSRRLFLPSVSSIWDAITGGGDSNPREAIAAVRRGMQLFRQGDVAGSVAEFDRAIILDPRQKAYLWQRGLSLYYVDRFEEGAEQFRIDVAQNPNDTEESIWCFICEARLHGVDVARTQFLEVGRDSRPVMREAYNLFKNGGDPEKLVNDFSSGQASEYFYASLYAGLYYEAEGKSENAKFHLTAACGSPYGQRSDDYMASLAKVHCLCRNWSSGIL
failed

Please give the result for AEICLITGTPGSGKTLKMVSMMANDEMFKPDENGIRRKVFTNIKGLKIPHTYIETDAKKLPKSTDEQLSAHDMYEWIKKPENIGSIVIVDEAQDVWPARSAGSKIPENVQWLNTHRHQGIDIFVLTQGPKLLDQNLRTLVRKHYHIASNKMGMRTLLEWKICADDPVKMASSAFSSIYTLDKKVYDLYESAEVHTVNKVKRSK too.
not failed

Please give protein production, item by item, for the list that follows.
1. MRNHKQSDRVLNLPAGYFGIVLGTIGMGFAWRYASQIWGISHWPGDIMVILAMIIWALLTLAFLSRLVRFPHSVMAEVRHPVMSSFVSLFPATTMLVAIGFVPWYRPLAVALFSVGVVIQLAYAAWQTAGLWRGAHPEEATTPGLYLPTVANNFISAMACGALGYNDAGLVFLGAGVFSWLSLEPVILQRLRSCGELPAVLRTSLGIQLAPALVACSAWLSVNGGEGDTLAKMLFGYGLLQLLFMLRLMPWYLSQPFNASFWSFSFGVSALATTGLHLGHGSESGLFHILAVPLFIFTNAIIALLLVRTFLLLVQGTLLIRTERAALLKTEEKNDRS
2. AIDENKQKALAAALGQIEKQFGKGSIMRLGEDRSMDVETISTGSLSLDIALGAGGLPMGRIVELYGPESSGKTTLTLQVIAAAQREGKTCAFIDAEHALDPIYARKLGVDIDNLLCSQPDTGEQALEICDALARSGAVDVIVVDSVAALTPKAEIEGEIGDSHMGLAARMMSQAMRKLAGNLKQSNTLLIFINQIRMKIGVMFGNPETTTGGNALKFYASVRLDIRRIGAVKEGENVVGSETRVKVVKNKIAAPFKQAEFQILYGEGINFYGELVDLGVKEKLIEKAGAWYSYKGEKIGQGKANATAWLKDNPETAKEIEKKVRELLLSNPNSTPDFSVDDSEGVAETNEDF
3. MGRAMGDSFTFIFNPAADKGRAADKTALIERSLAHFEVASLETTRFAGHAAEIARAAAGEGSTLIACGGDGTLNEVVNAVAGQPVKVGVLPVGSANDFLKTFNPSAKEHEVRIRGFAGATSRKVDLGKV

failed
not failed
failed

###

Test: label from the status in PepcDB records
quantity: protein production

Here are 4 sequences together with their reported answers.
Which protein production value belongs to MGSVQLSGSGLVASLPPNHSFSHKTKLNKPNSYFFRSKHNAARTKTVRAISTAPASQPPAADEPDEPPAVDFAFVHSVLLPDGTPDVHWRRANGGQKLRDIMLDSNIELYGPYSKPLSNCAGVGTCATCMVEIVNGKELLNPRTDIEKEKLKRKPKNWRLACQTNVGNPDSTGLVVIQQLPEWKAHEWNIPKNIPNDDDLETST ?
failed

Now consider QGKLLELVTFVPTEYADAVRQALWQAGAGRLGHYDCCSFSHAGTGTFRAAEGANPFVGAISELHHEAEERISLVLPAYRQGTVLQALHAAHPYELPAVSLIPLANDHPSAGGGIVGDLPSPISEREMLLHIKEVFGLKVLSHSAWRERPLRRMAICGGSGAFMWRRAAQEGADLFLTGEAKYNDFFDAGEHLLLVTIGHYESEEVANELFMRIISQKFPTFATHKSSVATNPVNYL and answer again.
failed

Follow-up item: MESVAFIQWCLEHLNYWTITLLMTIESSFIPFPSEVIIPPAAYKAAVNDELNIYLVVLFATIGADIGALINYYLAKWLGRPIIYKFANSRIGHMCLIDEAKVQHAESYFDKHGALSTFIGRLIPAVRQLISIPAGLARMKMHTFLLYTTIGAGLWNTILAVIGYYLSTVPGIESEEQLIAKVTEYSHEIGYCFIAIGIFIVGFLVYKGMKKK
failed

MFVGVDHAGRDWSWKEPGSTKACRNFMITLFAEWALPATTGQASGRRAMARKFMVPALAVLAFAIAAPAFAQVPANIAKAVADPSRPAAETARDAARRPGEILAMAELKPGDTVVDYIMGGGYFTRIISGAVGPQGVVYAYQPAEFIRFAARYGESLKAVTAALANSKPLDGPITALDLPDNVDAVITVQNYHDMHLKPFPTDTAAKANAEIFKSLKPGGVFLVIDHSAIAGSGITAADTLHRIDIAAVKQEVEAAGFKLEAESGLLADPADARTINVFDPAIRGKTDQFILKFRKPK , same question.
failed

Quick batch: protein production for everything below.
1. MDKNIKNKAEELIKDLIQKIDNNPYDAQAYYNLGVALNDAHSAEQAEELFKKALNIFANSKEKSSLMHYGLGNVYYTNSIYDKAIVEFKKVQSEKLKQDSMLMMAQAYYAQENYPQAMMYALTVSENTKHNVDAISLLASCFMATGDLTNARKYYLKALEYDKDNVEVLFQLGVIELSLSGEAGKYFDRVKNLDNEYYKKMQQRLADVQRFLMTQKKGKSDE
2. HYGEEPELVPSYTIFFSGCNFRCVFCQNWDISQFRVGVELLPEYLALKIERAYRFGARNVNFVGGEPTPNLPYILETLRYVNVPIPVVWNSNMYMSEEAMKLLDGIVD

["failed", "failed"]
